molecular target: Alpha-1D adrenergic receptor (Rattus norvegicus, UniProt P23944); assay: Activity at adrenergic alpha 1D receptor assessed as antagonism on noradrenaline-induced contraction of Sprague-Dawley rat thoracic aorta; type: functional, tissue-based; conditions: read-out: pA2 (converted)
Sequence (P23944 whole entry): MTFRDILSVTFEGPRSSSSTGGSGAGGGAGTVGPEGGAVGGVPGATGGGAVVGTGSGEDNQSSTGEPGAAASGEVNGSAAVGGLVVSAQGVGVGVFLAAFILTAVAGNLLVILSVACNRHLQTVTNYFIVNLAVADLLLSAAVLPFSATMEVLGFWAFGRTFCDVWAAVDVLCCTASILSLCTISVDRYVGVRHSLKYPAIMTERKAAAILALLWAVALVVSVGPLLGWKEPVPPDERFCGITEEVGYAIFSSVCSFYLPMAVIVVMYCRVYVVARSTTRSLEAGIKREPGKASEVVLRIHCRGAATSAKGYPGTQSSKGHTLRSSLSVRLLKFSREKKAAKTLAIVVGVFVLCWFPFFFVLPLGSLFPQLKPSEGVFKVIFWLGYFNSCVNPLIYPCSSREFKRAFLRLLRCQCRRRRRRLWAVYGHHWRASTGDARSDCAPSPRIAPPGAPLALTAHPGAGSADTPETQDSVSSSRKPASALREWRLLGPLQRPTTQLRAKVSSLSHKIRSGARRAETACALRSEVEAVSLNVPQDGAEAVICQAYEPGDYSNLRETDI
Answer each item with its documented Kb.
Number in nM, nothing else.

Enquiry: What does the data say about its Kb? Entry: COc1cccc(OC)c1OCCNC[C@@H]1COc2ccccc2O1
Return: 22.4

Enquiry: What does the data say about its Kb? Entry: COc1cccc(OC)c1OCCNC[C@H]1COc2cc3ccccc3cc2O1
Return: 182

Enquiry: What does the data say about its Kb? Entry: COc1ccc2ccccc2c1OCCNC[C@@H]1COc2ccccc2O1
Return: 10

Enquiry: What does the data say about its Kb? Entry: COc1cccc(OC)c1OCCNC[C@H]1COc2cc3c(cc2O1)CCCC3
Return: 4370

Enquiry: What does the data say about its Kb? Entry: COc1cc(-c2ccccc2)ccc1OCCNC[C@H]1COc2ccccc2O1
Return: 107

Enquiry: What does the data say about its Kb? Entry: COc1cccc(OC)c1OCCNC[C@H]1COc2ccccc2O1.Cl
Return: 0.631

Enquiry: What does the data say about its Kb? Entry: COc1ccc2c(c1OCCNC[C@H]1COc3ccccc3O1)CCCC2
Return: 4.07

Enquiry: What does the data say about its Kb? Entry: COc1ccc2ccccc2c1OCCNC[C@H]1COc2cc3c(cc2O1)CCCC3
Return: 2570

Enquiry: What does the data say about its Kb? Entry: COc1ccc(-c2ccccc2)cc1OCCNC[C@H]1COc2ccccc2O1
Return: 61.7

Enquiry: What does the data say about its Kb? Entry: COc1ccc2ccccc2c1OCCNC[C@H]1COc2ccccc2O1
Return: 0.0209

Enquiry: What does the data say about its Kb? Entry: COc1cccc(-c2ccccc2)c1OCCNC[C@H]1COc2ccccc2O1
Return: 1.02
